- experimental.details: Plasma pharmacokinetics, single ascending dose cohorts
- Format: in vivo, human
- test.context: human, plasma, oral, 50 mg
endpoint.name: half-life (h)
Numbers only here, please. The scale is h.

So what does the record say about half-life for `Cc1cnc(-c2ccnc(C(C)(C)O)n2)cc1-n1c(C)cc(OCc2ncc(F)cc2F)c(Cl)c1=O` ? 9.1

----------
- experimental.details: Plasma pharmacokinetics, single ascending dose cohorts
- Format: in vivo, human
- test.context: human, plasma, oral, 30 mg
endpoint.name: AUC(0-inf) (ng·h/mL)
Numbers only here, please. The scale is ng·h/mL.

So what does the record say about AUC(0-inf) for Cc1cnc(-c2ccnc(C(C)(C)O)n2)cc1-n1c(C)cc(OCc2ncc(F)cc2F)c(Cl)c1=O [ATI-450] ? 1100
